Target: conjugate export pump MRP2 (Rattus norvegicus)
Sequence (Q63120 whole entry): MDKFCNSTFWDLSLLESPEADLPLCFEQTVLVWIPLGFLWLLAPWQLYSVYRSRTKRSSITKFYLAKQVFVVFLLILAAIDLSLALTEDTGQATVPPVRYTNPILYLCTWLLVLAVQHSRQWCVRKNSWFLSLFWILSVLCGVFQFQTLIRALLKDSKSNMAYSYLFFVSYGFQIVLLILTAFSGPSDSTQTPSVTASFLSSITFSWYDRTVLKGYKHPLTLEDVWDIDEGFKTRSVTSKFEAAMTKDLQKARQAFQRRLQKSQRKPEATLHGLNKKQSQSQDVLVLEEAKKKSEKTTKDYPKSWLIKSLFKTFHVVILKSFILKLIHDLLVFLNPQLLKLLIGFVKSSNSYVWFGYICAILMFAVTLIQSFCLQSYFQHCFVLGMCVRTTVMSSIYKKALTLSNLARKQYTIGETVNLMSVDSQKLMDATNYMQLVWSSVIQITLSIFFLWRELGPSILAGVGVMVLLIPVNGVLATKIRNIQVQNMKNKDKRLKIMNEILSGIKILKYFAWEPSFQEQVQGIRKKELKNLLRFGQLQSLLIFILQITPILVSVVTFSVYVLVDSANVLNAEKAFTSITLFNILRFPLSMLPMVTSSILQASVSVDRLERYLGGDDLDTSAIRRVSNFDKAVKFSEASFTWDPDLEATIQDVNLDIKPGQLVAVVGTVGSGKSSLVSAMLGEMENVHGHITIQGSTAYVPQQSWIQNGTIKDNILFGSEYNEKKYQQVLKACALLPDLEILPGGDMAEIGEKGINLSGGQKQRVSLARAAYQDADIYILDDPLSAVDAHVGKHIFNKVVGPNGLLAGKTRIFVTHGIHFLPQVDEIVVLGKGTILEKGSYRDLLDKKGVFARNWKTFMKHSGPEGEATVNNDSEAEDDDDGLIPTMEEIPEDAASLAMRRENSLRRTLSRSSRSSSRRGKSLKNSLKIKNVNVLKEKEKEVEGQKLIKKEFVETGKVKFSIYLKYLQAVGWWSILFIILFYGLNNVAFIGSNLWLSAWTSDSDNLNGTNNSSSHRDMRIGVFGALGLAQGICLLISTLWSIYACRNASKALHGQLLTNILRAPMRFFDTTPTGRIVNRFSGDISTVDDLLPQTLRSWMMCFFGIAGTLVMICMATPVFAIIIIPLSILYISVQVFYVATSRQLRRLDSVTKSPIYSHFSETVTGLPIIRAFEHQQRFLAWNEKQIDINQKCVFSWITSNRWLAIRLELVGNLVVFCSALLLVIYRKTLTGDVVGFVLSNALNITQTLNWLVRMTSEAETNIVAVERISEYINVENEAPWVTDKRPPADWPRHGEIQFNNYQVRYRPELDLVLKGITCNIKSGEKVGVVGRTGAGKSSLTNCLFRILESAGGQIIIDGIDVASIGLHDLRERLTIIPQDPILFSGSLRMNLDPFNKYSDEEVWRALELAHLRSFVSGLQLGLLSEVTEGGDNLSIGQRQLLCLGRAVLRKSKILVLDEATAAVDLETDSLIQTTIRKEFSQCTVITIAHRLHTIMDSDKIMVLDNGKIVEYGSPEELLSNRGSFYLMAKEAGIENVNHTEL
Readout Name: IC50

Q: GET IC50 | system: conjugate export pump MRP2 (Rattus norvegicus) | item: `COc1cc2c(cc1OC)CN(CCc1ccc(NC(=O)c3cccc4c(=O)c5cccc(OC)c5[nH]c34)cc1)CC2`
Ans: > 20 µM

----------
Target: Mdr1b P-gp (Rattus norvegicus, UniProt P43245)
Sequence (P43245 whole entry): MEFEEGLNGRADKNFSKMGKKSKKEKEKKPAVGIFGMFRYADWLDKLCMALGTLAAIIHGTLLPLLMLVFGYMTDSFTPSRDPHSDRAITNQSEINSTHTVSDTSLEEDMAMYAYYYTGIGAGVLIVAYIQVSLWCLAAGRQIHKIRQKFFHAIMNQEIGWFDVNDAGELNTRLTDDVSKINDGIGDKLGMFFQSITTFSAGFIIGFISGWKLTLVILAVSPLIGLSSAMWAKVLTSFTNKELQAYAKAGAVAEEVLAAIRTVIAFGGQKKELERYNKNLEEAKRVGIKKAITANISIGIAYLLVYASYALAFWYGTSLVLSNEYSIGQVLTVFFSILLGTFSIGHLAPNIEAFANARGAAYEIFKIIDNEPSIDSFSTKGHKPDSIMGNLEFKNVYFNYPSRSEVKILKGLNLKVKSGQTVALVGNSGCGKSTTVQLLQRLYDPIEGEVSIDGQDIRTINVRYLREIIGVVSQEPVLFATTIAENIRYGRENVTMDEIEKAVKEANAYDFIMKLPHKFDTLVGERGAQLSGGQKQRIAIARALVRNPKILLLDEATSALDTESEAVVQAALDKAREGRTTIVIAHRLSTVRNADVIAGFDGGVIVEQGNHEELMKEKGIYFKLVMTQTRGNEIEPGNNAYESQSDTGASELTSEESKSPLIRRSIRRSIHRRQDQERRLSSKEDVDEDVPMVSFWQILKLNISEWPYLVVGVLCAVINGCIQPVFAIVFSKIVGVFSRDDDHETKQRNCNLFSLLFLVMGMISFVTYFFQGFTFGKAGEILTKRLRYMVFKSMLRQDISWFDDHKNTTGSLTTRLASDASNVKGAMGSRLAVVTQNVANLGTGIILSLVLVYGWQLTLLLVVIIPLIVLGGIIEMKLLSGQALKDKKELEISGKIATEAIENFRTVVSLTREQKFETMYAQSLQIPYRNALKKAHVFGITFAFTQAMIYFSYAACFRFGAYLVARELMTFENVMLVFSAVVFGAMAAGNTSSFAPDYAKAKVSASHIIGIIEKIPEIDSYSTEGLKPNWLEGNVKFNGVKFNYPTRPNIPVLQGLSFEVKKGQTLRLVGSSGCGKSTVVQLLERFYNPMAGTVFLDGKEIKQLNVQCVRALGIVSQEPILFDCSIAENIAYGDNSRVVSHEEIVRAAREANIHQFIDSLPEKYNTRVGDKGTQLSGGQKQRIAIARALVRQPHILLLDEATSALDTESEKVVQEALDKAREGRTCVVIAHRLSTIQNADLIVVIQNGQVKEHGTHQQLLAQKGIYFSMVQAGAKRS
Assay: ATP-dependent [3H]daunorubicin transport into rat hepatocyte canalicular membrane vesicles
Conditions: half-maximal inhibition of [3H]daunorubicin transport, [3H]daunorubicin 20 M; 0.5% fetal calf serum
Readout Name: IC50

Q: Complete the entry with IC50 for `COc1cc2c(cc1OC)CN(CCc1ccc(NC(=O)c3cccc4c(=O)c5cccc(OC)c5[nH]c34)cc1)CC2`
Ans: ~20 nM

----------
Target: Mdr1 P-gp (Rattus norvegicus)
Construct: Membrane fractions enriched in the hepatocyte canalicular membrane domain were prepared and characterized from rat and human liver; from tissue; host or cells: rat liver canalicular membrane vesicles
Experiment: ATP-dependent [14C]doxorubicin transport in rat hepatocyte canalicular membrane vesicles
Type: biochemical
Details: read-out: half-maximal inhibition of [14C]doxorubicin transport (IC50)
Readout Name: IC50 (nM)
Give the value in nM but do not write nM after it.

Q: Note IC50 for the molecule shown: `COc1cc2c(cc1OC)CN(CCc1ccc(NC(=O)c3cccc4c(=O)c5cccc(OC)c5[nH]c34)cc1)CC2`
Ans: 80

----------
Molecular target: Mdr1b P-gp (Rattus norvegicus)
Readout Name: pKi
API: returns pKi as number; meaning -log10 of concentration in mol/L.

Q: Report pKi, nothing else, for this molecule: `COc1cc2c(cc1OC)CN(CCc1ccc(NC(=O)c3cccc4c(=O)c5cccc(OC)c5[nH]c34)cc1)CC2`
Ans: 7.46

----------
Target: Mdr1 P-gp (Rattus norvegicus, UniProt P43245)
Construct: Membrane fractions enriched in the hepatocyte canalicular membrane domain were prepared and characterized from rat and human liver; from tissue; host or cells: rat liver canalicular membrane vesicles
Sequence (P43245 whole entry, the tested form may be a part): as the sequence (P43245 whole entry) above
Experiment: ATP-dependent N-pentyl-[3H]quinidinium transport in rat hepatocyte canalicular membrane vesicles
Format: biochemical
Conditions: rat hepatocyte canalicular membranes; substrate 1 M; read-out: half-maximal inhibition of N-pentyl-[3H]quinidinium transport (IC50)
Readout Name: pIC50
Expect pIC50 as a plain number equal to -log10 of the molar concentration.

Q: Name the recorded pIC50 of the compound listed here: COc1cc2c(cc1OC)CN(CCc1ccc(NC(=O)c3cccc4c(=O)c5cccc(OC)c5[nH]c34)cc1)CC2 [GG918]
Ans: 8.10

----------
Molecular target: UniProtKB P43245
Assay: ATP-dependent [3H]daunorubicin transport into rat hepatocyte canalicular membrane vesicles
Conditions: IC50 Dau (Figure 7), DAU 20 M; Figure 7 inset
Readout Name: IC50 (nM)
Please respond with the number in nM and leave the unit unwritten.

Q: State its IC50: `COc1cc2c(cc1OC)CN(CCc1ccc(NC(=O)c3cccc4c(=O)c5cccc(OC)c5[nH]c34)cc1)CC2`
Ans: 20
